inhibition at 10 µM values by entry
- test-system: PRMT6 (Homo sapiens)
- Sequence (Q96LA8 whole entry, species assumed): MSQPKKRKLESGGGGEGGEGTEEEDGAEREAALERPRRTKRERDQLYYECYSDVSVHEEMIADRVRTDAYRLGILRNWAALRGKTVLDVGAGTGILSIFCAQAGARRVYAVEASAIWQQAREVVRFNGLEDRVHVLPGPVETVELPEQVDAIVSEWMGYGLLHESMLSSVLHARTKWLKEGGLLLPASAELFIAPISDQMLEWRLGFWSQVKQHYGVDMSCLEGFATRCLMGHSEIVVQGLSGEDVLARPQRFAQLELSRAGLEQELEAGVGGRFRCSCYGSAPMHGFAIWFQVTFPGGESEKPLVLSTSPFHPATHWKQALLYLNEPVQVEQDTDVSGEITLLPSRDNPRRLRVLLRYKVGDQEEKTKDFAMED
- measurement-description: radioactive assay (Reaction Biology Corp.), inhibition of PRMT6
- Assay type: biochemical
outcome-measure: inhibition at 10 µM (%)

> print(dat)
                                   molecule  meas.value
1  N=C(NCCCSC[C@H]1O[C@@H](n2cnc3c(N)ncnc32)[C@H](O)[C@@H]1O)Nc1cccc(-c2n[nH]cc2C(F)(F)F)c1          98
2  Nc1ncnc2c1ncn2[C@@H]1O[C@H](CSCCCNCc2cccc(-c3cccc4cn[nH]c34)c2)[C@@H](O)[C@H]1O [Compound 10t]          87
3  Nc1cccc(-c2cccc(CNCCSC[C@H]3O[C@@H](n4cnc5c(N)ncnc54)[C@H](O)[C@@H]3O)c2)c1 [Compound 10l]          53
